All figures here come from PubChem BioAssay (EPA / NIEHS).

Molecular target: Cellular tumor antigen p53 (Homo sapiens)
Assay: TOX21_p53_BLA_p4_ratio: Tox21 HCT-116 p53 Agonism Beta-lactamase Assay, Ratio, Phase 4 (AID 2283601)
Results filed as inconclusive are left out. Activity calls are given as the source filed them. Rule for the calls: active = hit-call score of the fitted dose curve at least 0.9, where 1 is the maximum; inconclusive = response in the unintended direction; inactive = score below 0.9.
Classes used: label 1 (active), label 0 (inactive)

compound="CC(C)(C)C(O)/C(=C\\c1ccc(Cl)cc1Cl)n1cncn1 (stereo unspecified)" targetundertest="Cellular tumor antigen p53 (Homo sapiens)" assignedlabel="label 0"
compound=O=C(O)C(F)(F)C(F)(F)C(F)(F)C(F)(F)C(F)(F)C(F)(F)C(F)(F)F targetundertest="Cellular tumor antigen p53 (Homo sapiens)" assignedlabel="label 0"
compound=O=C(O)CCCOc1ccc(Cl)cc1Cl targetundertest="Cellular tumor antigen p53 (Homo sapiens)" assignedlabel="label 0"
compound=CN1CSC(=S)N(C)C1 targetundertest="Cellular tumor antigen p53 (Homo sapiens)" assignedlabel="label 0"
compound=COC(=O)c1ccccc1CS(=O)(=O)NC(=O)Nc1nc(OC)cc(OC)n1 targetundertest="Cellular tumor antigen p53 (Homo sapiens)" assignedlabel="label 0"
compound="CCC(C)(NC(=O)c1cc(Cl)c(C)c(Cl)c1)C(=O)CCl (stereo unspecified)" targetundertest="Cellular tumor antigen p53 (Homo sapiens)" assignedlabel="label 1"

---

Read-out: Apoptosis regulator Bcl-2 (Homo sapiens) (UniProt P10415)
Sequence (P10415 whole entry, looked up): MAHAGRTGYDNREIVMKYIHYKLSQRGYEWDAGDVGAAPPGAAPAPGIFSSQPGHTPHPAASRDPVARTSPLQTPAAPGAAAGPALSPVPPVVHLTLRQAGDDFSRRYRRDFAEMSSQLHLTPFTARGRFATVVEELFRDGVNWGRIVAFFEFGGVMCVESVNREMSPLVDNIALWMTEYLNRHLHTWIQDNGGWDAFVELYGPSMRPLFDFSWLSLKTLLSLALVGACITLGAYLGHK
Experiment: LTEA_HepaRG_BCL2: Life Technologies and Expression Analysis (LTEA) Assay for Bcl-2 gene using HepaRG (AID 2283475);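 note: BCL2 transcript by TaqMan qRT-PCR normalised to ACTB GAPDH and POLR2A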
Conditions: mRNA level, 48 h; actives raise or lower the signal
Protocol: LTEA_HepaRG is a cell based, multiplexed-readout assay that uses HepaRG, a human liver cell line, with measurements taken at 48 hours after chemical dosing on a 96-well plate.LTEA_HepaRG_BCL2 is one of 102 assay component(s) measured in the LTEA HepaRG cell culture assay. It is a marker of Cell proliferation, survival, death.Data from the assay component LTEA_HepaRG_BCL2 was analyzed into 1 endpoint. […]
Active and inactive are the calls of the source. Rule for the calls: active = hit-call score of the fitted dose curve at least 0.9, where 1 is the maximum; inactive = score below 0.9.
Classes used: Yes = active, No = inactive

molecule=Cc1[nH]c(=O)n(C(C)(C)C)c(=O)c1Cl assignedlabel=No
molecule=Clc1ccccc1-c1nnc(-c2ccccc2Cl)nn1 assignedlabel=No
molecule="CC(C)(C)C(O)C(Oc1ccc(Cl)cc1)n1cncn1 (stereo unspecified)" assignedlabel=No
molecule="CC(C)(C)C(O)/C(=C\\c1ccc(Cl)cc1Cl)n1cncn1 (stereo unspecified)" assignedlabel=Yes
molecule="O=C(NC(=O)c1c(F)cccc1F)Nc1ccc(OC(F)(F)C(F)OC(F)(F)F)c(Cl)c1 (stereo unspecified)" assignedlabel=No
molecule=N#Cc1c(Cl)c(Cl)c(Cl)c(C#N)c1Cl assignedlabel=No

---

Experiment: ATG_TGFb_CIS: Attagene CIS-FACTORIAL HepG2 Assay for human Transforming Growth Factor (TGF) (AID 2282967)
Settings: HepG2 Attagene CIS TGFb reporter, mRNA transcription; actives raise or lower the signal
The source made the active and inactive calls. Rule for the calls: active = hit-call score of the fitted dose curve at least 0.9, where 1 is the maximum; inactive = score below 0.9.
Classes used: active, inactive

structurestring=[2H]C1([2H])[n+]2ccccc2-c2cccc[n+]2C1([2H])[2H] assignedlabel=inactive
structurestring=CCN(CC)C(=O)SCc1ccc(Cl)cc1 assignedlabel=inactive
structurestring=Cc1[nH]c(=O)n(C(C)(C)C)c(=O)c1Cl assignedlabel=active
structurestring=CNC(=O)CSP(=S)(OC)OC assignedlabel=inactive
structurestring=Cc1cc(C)nc(NC(=O)NS(=O)(=O)c2ccccc2C(=O)OC2COC2)n1 assignedlabel=inactive
structurestring=COc1nn(CSP(=S)(OC)OC)c(=O)s1 assignedlabel=inactive
structurestring=CCS(=O)(=O)c1cccnc1S(=O)(=O)NC(=O)Nc1nc(OC)cc(OC)n1 assignedlabel=inactive
structurestring=CCOc1nc(NC)nc(NC(=O)NS(=O)(=O)c2ccccc2C(=O)OC)n1 assignedlabel=inactive
structurestring=Oc1ccc(Cl)cc1Cc1ccccc1 assignedlabel=inactive
